B1: TPR t1 (parent)
chain: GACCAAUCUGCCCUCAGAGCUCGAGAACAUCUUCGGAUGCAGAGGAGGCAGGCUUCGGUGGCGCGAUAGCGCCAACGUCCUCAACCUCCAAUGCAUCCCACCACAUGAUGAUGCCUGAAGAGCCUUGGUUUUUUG

# Variants of: B1
# Protocol Details: polymerase ribozyme fitness, log enrichment relative to wild type (log ratio); higher = more active; in vitro selection for triplet polymerase activity
// class assignment uses polymerase ribozyme fitness (log ratio) with these ranges: band A = under -3, band B = from -3 up to -2, band C = -2 and over

Problem: State the band of C40U C56U A74U U78C C89G
Solution: band B

Problem: In plain terms, what class is C3U A24G G47C ?
Solution: band A

Problem: State the class of the variant shown: G35U A90C C97G A121C
Solution: band A

Problem: # bin lookup: classify A50U U59A G60C C80G C88U C123U by its polymerase ribozyme fitness (log ratio)
Solution: band C

Problem: Form: Item = C12G G39U G61A U106C G127C ; Class = ?
Solution: band B

Problem: Quick check: band for G58A G71A U81G U132C
Solution: band A

Problem: Place this variant in its band: A16U G61U
Solution: band C

Problem: GET /class?item= C88A C124A
Solution: band C

Problem: State the class of the variant shown: A37U A66C A75U G120C
Solution: band C

Problem: Assign a bin to A6G C98U
Solution: band C

Problem: Into which category would you place C40U A105C ?
Solution: band A

Problem: Class label required: A43C C88U
Solution: band B

Problem: Which band does C73A C88U C99A A100C fall in?
Solution: band A

Problem: Which class is correct for the following variant? A111U U112G G122A
Solution: band B

Problem: Textbook exercise: identify the category of the variant given here, U38G C101A , according to its measured value.
Solution: band C

Problem: Exercise: read the entry C20A G77A and state which class it falls under.
Solution: band A

Problem: Assign a category based on measured polymerase ribozyme fitness (log ratio) for C53U A83C U87C and give only the class name.
Solution: band C

Problem: State the class of the variant shown: C11G C88U U116C
Solution: band C

Problem: # bin label for C40A A111C
Solution: band C

Problem: Lab note: sort U9A G36C C101U into the matching polymerase ribozyme fitness (log ratio) band.
Solution: band C

Problem: Sort G39U G58A A121U into one of the categories.
Solution: band C

Problem: Record A18G A74C C79U — which class?
Solution: band A

Problem: Which class does A5C U7A C8A C80U fall in?
Solution: band C

Problem: Which class does C102A U109A fall in?
Solution: band A

Problem: Categorize the following entry: A46C G60C A68U
Solution: band A

Problem: Field: class (polymerase ribozyme fitness (log ratio)) — entry: G19U A43C
Solution: band A

Problem: Lab note: which band did U7G A43G G47U G61A U96A land in?
Solution: band B

Problem: Which category fits this record: C12G A66C G93A C104U
Solution: band C

Problem: Input C72G U78A U109A G128A ; output its category
Solution: band A

Problem: Hi, small favor: classify C72U A90C by its polymerase ribozyme fitness (log ratio) when you get a moment.
Solution: band C

Problem: Sort into band: C49U C62U G77A U78G C80G A90C G107U C115G G120C
Solution: band A

Problem: Dear colleague, I would appreciate it if you could identify the bin for U7G A41U and reply at your convenience.
Solution: band C

Problem: Into which category would you place C12U A18C C62U ?
Solution: band B

Problem: Consider C11G G63C . To which polymerase ribozyme fitness (log ratio) class does it belong?
Solution: band C

Problem: For this variant, which bin applies? A5U A83U G120U U129C
Solution: band C

Problem: Assign a bin to C56A C86G C102A
Solution: band A

Problem: The entry to classify is A18C G35A U59C U112A ; which class holds it?
Solution: band A

Problem: Assign a bin to C40A C73U G128U
Solution: band A

Problem: Please classify: G10C A27U U87G
Solution: band A

Problem: Any idea which band G45A C53G G61A C79U C98U is in?
Solution: band A

Problem: Sort C53A U78C into one of the categories.
Solution: band C

Problem: Tag the class for C88A C102A
Solution: band B

Problem: Each variant maps to one class by polymerase ribozyme fitness (log ratio). Which class for C20U G48C U54G A74C ?
Solution: band A

Problem: Band assignment needed for C20G A91G C101A G117C please.
Solution: band A
